Test: Oral pharmacokinetics of digoxin with and without BM pre-treatment
Type: in vivo, male Sprague-Dawley rat
Settings: male, Sprague-Dawley, rat, plasma, po, 0.2 mg/kg, vehicle pretreated rats; digoxin 0.2 mg/kg oral
experimental_readout: CL/F (mL/h/kg)
Numeric only. Scale: mL/h/kg

Notebook: C[C@H]1O[C@@H](O[C@H]2[C@@H](O)C[C@H](O[C@H]3[C@@H](O)C[C@H](O[C@H]4CC[C@@]5(C)[C@H](CC[C@@H]6[C@@H]5C[C@@H](O)[C@]5(C)[C@@H](C7=CC(=O)OC7)CC[C@]65O)C4)O[C@@H]3C)O[C@@H]2C)C[C@H](O)[C@@H]1O , CL/F read as 4.88
